B1: glmS ribozyme (parent)
chain: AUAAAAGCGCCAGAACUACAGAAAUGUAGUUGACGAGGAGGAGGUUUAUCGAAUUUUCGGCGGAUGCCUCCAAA

- Variants of: B1
- Test name: self-cleavage kobs at 2500 uM GlcN6P; higher = faster cleavage; RNA array
- Test conditions: with glucosamine-6-phosphate
This sample holds only a part of the variants without activity.
Parameter class (string): assigned from measured self-cleavage kobs at 2500 uM GlcN6P. Ranges: bottom range = under 0.0002 s⁻¹, center range = from 0.0002 s⁻¹ up to 0.0007 s⁻¹, top range = 0.0007 s⁻¹ and over

Kindly state the category for this variant: A15G C67U
top range

# bin lookup: classify G38U C67G C68U by its self-cleavage kobs at 2500 uM GlcN6P
center range

Bin this entry: G32A A53U U56A C71U
bottom range

Lab note: sort U30G C70G into the matching self-cleavage kobs at 2500 uM GlcN6P band.
bottom range

State the band of U45G C70U
top range

Which class does A6U A14U G29A C34G G63A fall in?
bottom range

Bin this entry: G41C C70U
center range

Which class is correct for the following variant? C34G A39G G60U
bottom range

Which class is correct for the following variant? C16G G32C G41U U69C
bottom range

Please let me know in which category the item C10A G43U U45A belongs.
bottom range

Kindly identify the class of G40U G41A A42U U54G G60U C71U .
bottom range

State the class of the variant shown: A42U U54C U55C
bottom range

State the band of G32C G44C U55C C68A C70U
bottom range

Band for C11G C50G ?
center range

For the record A12U A15C , report the class its self-cleavage kobs at 2500 uM GlcN6P corresponds to.
top range

Quick check: band for A12U A42G A64U
bottom range

Returns: class label. Input: C8U C68A
bottom range
